pKd reference
Biological target: T1, DLG3_2, Q92796
T1 sequence (Q92796 221-321, limits assumed, looked up): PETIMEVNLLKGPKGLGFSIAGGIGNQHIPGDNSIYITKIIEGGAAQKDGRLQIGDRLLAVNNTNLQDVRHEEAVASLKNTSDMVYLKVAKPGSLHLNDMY
Assay: holdup assay
Set-up: key: below the threshold = too weak to quantify, mostly under pKd 3.1 to 4
Conditions: plain residues with an end cap or a label only (N-terminal biotin on a linker: ttds)
Respond with the number and no other words.

Solved cases below.
Indicate its recorded pKd; the binder in question is VLRLQSETSV [VANGL1, Q8TAA9]
4.64

Specify reported pKd for the binder shown: SRPQRTQTQV [HPV67-E6, A4U7F2]
5.06

Next:
Look up and report measured pKd for this entry: SSRTRRETQL [HPV16-E6, P03126]
4.8
